# Measurement target: Melanocortin receptor 4 (Homo sapiens)
# Sequence (P32245 whole entry): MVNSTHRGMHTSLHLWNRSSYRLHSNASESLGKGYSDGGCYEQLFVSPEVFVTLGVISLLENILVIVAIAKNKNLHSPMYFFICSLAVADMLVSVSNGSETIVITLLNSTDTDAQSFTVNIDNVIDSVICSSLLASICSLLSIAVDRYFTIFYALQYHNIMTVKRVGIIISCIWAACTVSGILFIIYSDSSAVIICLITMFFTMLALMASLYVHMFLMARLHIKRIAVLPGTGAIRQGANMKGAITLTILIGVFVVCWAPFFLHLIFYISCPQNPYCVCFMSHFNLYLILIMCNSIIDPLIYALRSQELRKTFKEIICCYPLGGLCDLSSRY
# Assay comment: Displacement of [125I]NDP-MSH from human MC4R expressed in HEK293 cells
# Format: cell-based
Quantity: Ki (µM)

INSERT INTO assay_data (molecule, measured_result) VALUES
  ('Cc1ccc(N2CCN(C(=O)[C@@H]3CCO[C@@H]3c3ccc(Cl)cc3)CC2)c([C@@H](NC(=O)CCN(C)C)C(C)C)c1', 0.12),
  ('CNCCC(=O)N[C@@H](CC(C)C)c1cc(C(F)(F)F)ccc1N1CCN(C(=O)[C@H]2CSC[C@@H]2c2ccc(Cl)cc2)CC1', 0.17),
  ('CC(C)C[C@H](N)c1cc(C(F)(F)F)ccc1N1CCN(C(=O)C2COCC2c2ccc(Cl)cc2)CC1 (stereo partly specified)', 0.28),
  ('CC(C)[C@H](NC(=O)CCN(C)C)c1cccc(F)c1N1CCN(C(=O)[C@H]2CS(=O)(=O)C[C@@H]2c2ccc(Cl)cc2)CC1', 0.38);

1 = CNCC(=O)N[C@@H](CC(C)C)c1cc(C(F)(F)F)ccc1N1CCN(C(=O)[C@H]2CSC[C@@H]2c2ccc(Cl)cc2)CC1
2 = CC(C)[C@H](NC(=O)CCN(C)C)c1cccc(F)c1N1CCN(C(=O)[C@@H]2COC[C@@H]2c2ccc(Cl)cc2)CC1
3 = CC(C)C[C@H](NC(=O)[C@@H](C)N)c1cc(C(F)(F)F)ccc1N1CCN(C(=O)[C@H]2CS(=O)(=O)C[C@@H]2c2ccc(Cl)cc2)CC1
4 = Cc1ccc(N2CCN(C(=O)[C@@H]3OCC[C@@H]3c3ccc(Cl)cc3)CC2)c([C@@H](NC(=O)CCN(C)C)C(C)C)c1
Prompt: rank_up(items): orders items by reported Ki in ascending numerical order. Returns: the labels listed in the requested order.
Completion: 4, 2, 3, 1

A = CC(C)C[C@H](NC(=O)CCN)c1cc(C(F)(F)F)ccc1N1CCN(C(=O)C2CC(=O)OC2c2ccc(Cl)cc2)CC1 (stereo partly specified)
B = CC(C)C[C@H](N)c1cc(C(F)(F)F)ccc1N1CCN(C(=O)C2C(=O)OCC2c2ccc(Cl)cc2)CC1 (stereo partly specified)
Prompt: In the pair A and B , the larger recorded Ki belongs to which? Give the chosen item's label as your response.
Completion: B
(B: 0.26 µM, A: 0.11 µM)
